- TARGET: human PTH1 receptor (Homo sapiens, UniProt Q03431)
- Sequence (Q03431 27-593): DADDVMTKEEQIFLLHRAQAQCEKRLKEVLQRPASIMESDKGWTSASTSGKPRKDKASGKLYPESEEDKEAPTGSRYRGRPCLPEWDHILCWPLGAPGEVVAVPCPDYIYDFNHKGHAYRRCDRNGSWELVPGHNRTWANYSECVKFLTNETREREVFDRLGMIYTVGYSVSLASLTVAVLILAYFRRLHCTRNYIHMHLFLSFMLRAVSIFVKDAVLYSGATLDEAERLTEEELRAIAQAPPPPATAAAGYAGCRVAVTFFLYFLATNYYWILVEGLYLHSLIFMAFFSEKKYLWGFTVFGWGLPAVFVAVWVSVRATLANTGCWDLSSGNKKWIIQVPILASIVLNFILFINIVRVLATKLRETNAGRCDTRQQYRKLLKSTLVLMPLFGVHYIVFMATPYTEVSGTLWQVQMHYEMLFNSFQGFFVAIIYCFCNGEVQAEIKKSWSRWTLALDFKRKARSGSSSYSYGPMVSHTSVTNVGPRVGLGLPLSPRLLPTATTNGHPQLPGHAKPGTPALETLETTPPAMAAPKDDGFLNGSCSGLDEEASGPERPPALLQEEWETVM
- MEASUREMENT DESCRIPTION: In vitro cAMP signal activity in HKRK-B7 cells (LLC-PK1 cells overexpressing the human PTH1 receptor)
- Assay type: cell-based
- EXPERIMENTAL CONDITIONS: HKRK-B7 cells; compound at 1×10^−3 M; cAMP produced as percentage of that produced by hPTH(1-34) at 100 nM
MEASURED METRIC: cAMP production activity (%)
// return numeric value only (unit: %, not printed)

- MOLECULE: "Cc1cc(C(=O)N2CCC(O)(CF)CC2)cc(C)c1CCS(=O)(=O)N1CCC2(CC1)N=C(C1CCC(CCC(F)(F)F)CC1)NC2=O (stereo not shown)"
  MEASURED: 102
- MOLECULE: "Cc1cc(C(=O)N2CCC(O)CC2)cc(C)c1/C=C/[S@TB4](=O)(=O)N1CCC2(CC1)N=C(c1ccc3c(c1)OC(F)(F)O3)NC2=O"
  MEASURED: 84
- MOLECULE: "Cc1cc(C(=O)N2CC[C@H](N(C)C)C2)ccc1CCS(=O)(=O)N1CCC2(CC1)N=C(c1cccc(C(F)(F)F)c1)NC2=O"
  MEASURED: 51
- MOLECULE: "Cc1cc(S(=O)(=O)NCCN2CCOCC2)ccc1CCS(=O)(=O)N1CCC2(CC1)N=C(c1cccc(C(F)(F)F)c1)NC2=O"
  MEASURED: 58
- MOLECULE: "CC(=O)Nc1ccc(CCS(=O)(=O)N2CCC3(CC2)N=C(C2CCC(C)(C)CC2)NC3=O)c(C)c1"
  MEASURED: 69

Which cAMP production activity (%) value is on record for Cc1cc(C(=O)N2CCC(O)(CF)CC2)cc(C)c1/C=C/S(=O)(=O)N1CCC2(CC1)N=C(c1ccc(C(F)F)c(F)c1)NC2=O ? 66

Which cAMP production activity (%) value is on record for Cc1cc(C(=O)N2CCC(C)(O)CC2)cc(C)c1/C=C/S(=O)(=O)N1CCC2(CC1)N=C(c1ccc(Cl)c(Cl)c1)NC2=O ? 102

Which cAMP production activity (%) value is on record for CC(=O)Nc1ccc(CCS(=O)(=O)N2CCC3(CC2)N=C(C2CCC(C(C)(C)F)CC2)NC3=O)c(C)c1 (stereo not shown) ? 74

Which cAMP production activity (%) value is on record for [2H]C([2H])([2H])C1([2H])CCC(C2=NC3(CCN([S@TB18](=O)(=O)/C=C/c4c(C)cc(N(C)C(N)=O)cc4C)CC3)C(=O)N2)CC1 (stereo not shown) ? 92

Which cAMP production activity (%) value is on record for CC(=O)N(C)c1cc(F)c(/C=C/S(=O)(=O)N2CCC3(CC2)N=C(C2CCC(C)CC2)NC3=O)c(F)c1 (stereo not shown) ? 89

Which cAMP production activity (%) value is on record for Cc1cc(C(=O)N2CCC(O)CC2)cc(C)c1/C=C/S(=O)(=O)N1CCC2(CC1)N=C(c1ccc(F)c(OCCCC(F)(F)C(F)(F)F)c1)NC2=O ? 118

Which cAMP production activity (%) value is on record for Cc1cc(C(=O)N2CC(O)C2)ccc1CCS(=O)(=O)N1CCC2(CC1)N=C(c1cccc(C(F)(F)F)c1)NC2=O ? 64

Which cAMP production activity (%) value is on record for CC(=O)Nc1cc(C)c(/C=C/S(=O)(=O)N2CCC3(CC2)N=C(C2CCCCC2)NC3=O)c(C)c1 ? 110

###

- TARGET: human PTH1 receptor (Homo sapiens, UniProt Q03431)
- MEASUREMENT DESCRIPTION: In vitro cAMP signal activity in HKRK-B7 cells (LLC-PK1 cells overexpressing the human PTH1 receptor)
- Format: cell-based
- EXPERIMENTAL CONDITIONS: HKRK-B7 cells; compound at 1×10^−3 M; cAMP produced as percentage of that produced by hPTH(1-34) at 100 nM
MEASURED METRIC: cAMP production activity (%)
// return numeric value only (unit: %, not printed)

- MOLECULE: "Cc1cc(CN(C)C(N)=O)cc(C)c1CCS(=O)(=O)N1CCC2(CC1)N=C(C1CCC(C)CC1)NC2=O (stereo not shown)"
  TARGET: "human PTH1 receptor (Homo sapiens, UniProt Q03431)"
  MEASUREMENT UNITS: "%"
  cAMP production activity (%): 69

Let us examine a further case.
Which cAMP production activity (%) value is on record for [2H]C([2H])([2H])C([2H])([2H])C([2H])([2H])C([2H])([2H])Oc1ccc(C2=NC3(CCN(S(=O)(=O)/C=C/c4c(C)cc(C(=O)N5CCC(C)(O)CC5)cc4C)CC3)C(=O)N2)cc1C(F)(F)F ? 80

###

- TARGET: human PTH1 receptor (Homo sapiens)
- MEASUREMENT DESCRIPTION: In vitro cAMP signal activity in HKRK-B7 cells (LLC-PK1 cells overexpressing the human PTH1 receptor)
- Type: cell-based
- EXPERIMENTAL CONDITIONS: HKRK-B7 cells; compound at 1×10^−3 M; cAMP produced as percentage of that produced by hPTH(1-34) at 100 nM
Threshold 70%: cAMP production activity (%) strictly smaller gives MET, otherwise NOT MET.

Example entries and their recorded answers appear below.
- COMPOUND: "CC(C)COC(=O)NCc1ccc(CCS(=O)(=O)N2CCC3(CC2)N=C(C2CCCCC2)NC3=O)cc1"
  CATEGORY LABEL: "NOT MET"
- COMPOUND: "COc1ccc(C2=NC3(CCN(S(=O)(=O)/C=C/c4c(C)cc(C(=O)N5CCC(C)(O)CC5)cc4C)CC3)C(=O)N2)cc1C"
  CATEGORY LABEL: "NOT MET"
- COMPOUND: "CCCCCCCCCC1=NC2(CCN(S(=O)(=O)/C=C/c3c(C)cc(OCCC(O)CO)cc3C)CC2)C(=O)N1 (centres unmarked)"
  CATEGORY LABEL: "MET"

Lab log: compare recorded cAMP production activity (%) with 70%; is it strictly lower for CCCCCCCCCC1=NC2(CCN(S(=O)(=O)CCc3ccc(N4C(=O)CC[C@H]4CO)cc3C)CC2)C(=O)N1 ? NOT MET

Lab log: compare recorded cAMP production activity (%) with 70%; is it strictly lower for Cc1cc(N(C)C(N)=O)cc(C)c1/C=C/[S@TB3](=O)(=O)N1CCC2(CC1)N=C(c1ccc(F)c(OC(F)(F)F)c1)NC2=O ? NOT MET

Lab log: compare recorded cAMP production activity (%) with 70%; is it strictly lower for COC(=O)N1CCCC(C2=NC3(CCN(S(=O)(=O)c4cccc(Cl)c4)CC3)C(=O)N2)C1 (centres unmarked) ? MET

Lab log: compare recorded cAMP production activity (%) with 70%; is it strictly lower for O=C1NC(c2cccc(OC(F)(F)F)c2)=NC12CCN(S(=O)(=O)CCc1cccc3c1OC(F)(F)O3)CC2 ? MET

Lab log: compare recorded cAMP production activity (%) with 70%; is it strictly lower for Cc1cc(NC(=O)NCC(=O)O)ccc1/C=C/S(=O)(=O)N1CCC2(CC1)N=C(C1CCC(C)CC1)NC2=O (centres unmarked) ? MET

###

- TARGET: human PTH1 receptor (Homo sapiens, UniProt Q03431)
- MEASUREMENT DESCRIPTION: In vitro cAMP signal activity in HKRK-B7 cells (LLC-PK1 cells overexpressing the human PTH1 receptor)
- Type: cell-based
- EXPERIMENTAL CONDITIONS: HKRK-B7 cells; compound at 1×10^−3 M; cAMP produced as percentage of that produced by hPTH(1-34) at 100 nM
Below, each entry is listed with its recorded cAMP production activity (%).
// return numeric value only (unit: %, not printed)

- MOLECULE: "Cc1cc(N2C(=O)NC(C)(C)C2=O)ccc1CCS(=O)(=O)N1CCC2(CC1)N=C(C1CCC(C)CC1)NC2=O (centres unmarked) [Compound 863]"
  MEASURED: 67
- MOLECULE: "CC(=O)Nc1ccc(CCS(=O)(=O)N2CCC3(CC2)N=C(c2cccc(C#N)c2)NC3=O)c(C)c1 [Compound 907]"
  MEASURED: 85
- MOLECULE: "Cc1ccc(C(=O)N(C)C)cc1CCS(=O)(=O)N1CCC2(CC1)N=C(c1cccc(OC(F)(F)F)c1)NC2=O [Compound 412]"
  MEASURED: 54
- MOLECULE: "Cc1cc(C(=O)N2CCC(O)(CF)CC2)cc(C)c1/C=C/S(=O)(=O)N1CCC2(CC1)N=C(c1ccc3c(c1)OC(F)(F)O3)NC2=O [Compound 1280]"
  MEASURED: 74
- MOLECULE: "Cc1cc(NS(=O)(=O)N(C)C)ccc1/C=C/S(=O)(=O)N1CCC2(CC1)N=C(C1CCCCC1)NC2=O [Compound 568]"
  MEASURED: 39
- MOLECULE: "Cc1cc(OC2CCN(C(=O)OC(C)(C)C)CC2)ccc1CCS(=O)(=O)N1CCC2(CC1)N=C(c1cccc(OC(F)(F)F)c1)NC2=O [Compound 859]"
  MEASURED: 26

Let us examine a further case.
Which cAMP production activity (%) value is on record for CC(=O)Nc1cc(C)c(CCS(=O)(=O)N2CCC3(CC2)N=C(C2CCCCC2)NC3=O)c(C)c1 [Compound 302] ? 95
